Values from the supplement of paper PMC7125110

Catalogue of variants with associated self-cleavage kobs at 2500 uM GlcN6P
B1: glmS ribozyme (parent)
chain: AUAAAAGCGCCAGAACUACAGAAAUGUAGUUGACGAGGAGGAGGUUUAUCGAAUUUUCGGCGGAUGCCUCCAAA

# Variants of: B1
# assay: self-cleavage kobs at 2500 uM GlcN6P; higher = faster cleavage; RNA array
# condition: with glucosamine-6-phosphate
This sample holds only a part of the variants without activity.

Query :: Answer with reported self-cleavage kobs at 2500 uM GlcN6P of U47C G60U
Result :: < 1e-05 s⁻¹

Query :: Answer with reported self-cleavage kobs at 2500 uM GlcN6P of G62A A64C
Result :: < 1e-05 s⁻¹

Query :: Answer with reported self-cleavage kobs at 2500 uM GlcN6P of A12U C50U
Result :: 9.52e-05 s⁻¹

Query :: Answer with reported self-cleavage kobs at 2500 uM GlcN6P of G7U C16U G29C U54A
Result :: < 1e-05 s⁻¹

Query :: Answer with reported self-cleavage kobs at 2500 uM GlcN6P of A36C A39C A53G
Result :: < 1e-05 s⁻¹

---
Query :: Answer with reported self-cleavage kobs at 2500 uM GlcN6P of A6C U45C G63A
Result :: < 1e-05 s⁻¹

Query :: Answer with reported self-cleavage kobs at 2500 uM GlcN6P of G40A A42G
Result :: 0.00363 s⁻¹

Query :: Answer with reported self-cleavage kobs at 2500 uM GlcN6P of A33C G35A G38C A52U U65C C68G
Result :: < 1e-05 s⁻¹
